For each of the compounds below, state its pIC50.
- tested system: DHODH (Homo sapiens)
- Construct: purchased Reaction Biology (contract assay)
- Sequence (Q02127 whole entry): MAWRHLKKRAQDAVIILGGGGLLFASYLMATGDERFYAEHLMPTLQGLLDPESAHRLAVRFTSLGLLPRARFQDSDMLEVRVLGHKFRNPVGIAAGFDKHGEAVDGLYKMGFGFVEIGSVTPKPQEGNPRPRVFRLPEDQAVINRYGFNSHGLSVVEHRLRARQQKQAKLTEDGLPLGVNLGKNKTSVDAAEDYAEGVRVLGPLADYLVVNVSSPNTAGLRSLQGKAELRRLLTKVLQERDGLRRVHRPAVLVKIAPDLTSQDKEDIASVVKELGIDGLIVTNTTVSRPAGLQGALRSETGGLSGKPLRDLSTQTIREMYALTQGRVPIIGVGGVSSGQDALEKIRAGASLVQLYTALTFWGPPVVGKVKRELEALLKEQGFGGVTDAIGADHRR
- test protocol: DHODH enzyme activity assay (Resorufin fluorescence, Reaction Biology)
- Assay type: biochemical
- assay setup: Fig. 7B; read-out: IC50s DHODH assay: IC50
Answers are plain numbers, as −log10 of the molar value.

CCc1c(C(=O)N(C)Cc2cnn(C(C)C)c2)[nH]c2ccccc12 :: 4.54

Now let's try a different one.
Look up pIC50 of Cc1ccc2[nH]c3c(c2c1)CCOC31CCN(Cc2ccccc2-c2ccccc2)CC1 and report it.
5.66

* * *

- System: Notch signalling
- test protocol: Notch reporter assay (12xCSL firefly luciferase / renilla luciferase, HEK293T Notch1ΔE reporter cell line clone #A1-11)
- Format: cell-based
- assay setup: 10µM; 3-point DR confirmation screen, Notch reporter assay
experimental endpoint: inhibitor ratio in % of DMSO in 3 point DR

Worked cases, answers included:
COc1cc(Nc2cc(-c3ccccc3N(C)C)ncn2)cc(OC)c1OC [CBK090702] :: 85.7 % of DMSO
O=C(NC(Nc1cccc(C(F)(F)F)c1)C(=O)c1ccccc1)c1ccc(Cl)cc1 (centres unmarked) [CBK263585] :: 59.9 % of DMSO
FC(F)(F)CCN1CCC2(CC1)NCCc1c2[nH]c2ccc(Cl)cc12 [CBK039331] :: 79.3 % of DMSO
Fc1cc(CN2CCC3(CC2)OCCc2c3[nH]c3ccc(Br)cc23)cc(F)c1F [CBK039943] :: 83.6 % of DMSO
C[C@@H]1C(=O)O[C@H]2[C@H]1CC[C@@]1(C)Cc3sc(NC(=O)CCC(=O)O)nc3[C@@H](C)[C@H]21 [CBK289429] :: 38.0 % of DMSO
COc1ccc2cc(C(=O)N3CCC(c4ccncc4)CC3)[nH]c2c1 [CBK283799] :: 56.5 % of DMSO
O=C(Nc1ccc(O)c(-c2nc3ccccc3o2)c1)c1ccc(-c2ccc([N+](=O)[O-])cc2)o1 [CBK263439] :: 110.7 % of DMSO
COc1cccc(OCC2CCCN(C(=O)CCc3cnn(C)c3)C2)c1 (centres unmarked) [CBK306931] :: 57.0 % of DMSO

Dear colleague, could you send me inhibitor ratio in % of DMSO in 3 point DR for each of the items below? Thanks.
1. C[C@@H]1C(=O)O[C@H]2[C@H]1CC[C@@]1(C)Cc3sc(NC(=O)CN(C)C)nc3[C@@H](C)[C@H]21 [CBK289431]
2. CC(C)Nc1cncc(OCc2ccc(Cl)c(Cl)c2)n1 [CBK115653]
3. O=C(O)c1c2c(nc3ccccc13)C(=Cc1ccc3c(c1)OCCO3)CC2 [CBK297479]
4. CCCC(=O)c1ccc(S(=O)(=O)N2CCN(Cc3csc(-c4ccccc4)n3)CC2)cc1 [CBK063161]
5. c1ccc2oc(CN3Cc4nc[nH]c4C[C@H]3c3nc(-c4ccc5c(c4)OCO5)no3)cc2c1 [CBK288998]
6. NC(=O)c1[nH]nc(C2OC(CO)C(O)C2O)c1O (centres unmarked) [CBK201236]

["39.6 % of DMSO", "44.3 % of DMSO", "15.2 % of DMSO", "67.2 % of DMSO", "72.8 % of DMSO", "67.4 % of DMSO"]

Values compiled from paper PMC13242511.
